Listing of entries alongside the reported OD450 at 0.01 nM.
- targetOfAssay: T1, human MSLN-R2-his protein (human, UniProt Q13421 391-486)
- T1 construct: Region 2 of human MSLN, His-tagged; also called human MSLN-R2 protein; hMSLN-R2-his; not shown: His tag
- T1 sequence (Q13421 other isoform, or with tags, fused parts or gaps): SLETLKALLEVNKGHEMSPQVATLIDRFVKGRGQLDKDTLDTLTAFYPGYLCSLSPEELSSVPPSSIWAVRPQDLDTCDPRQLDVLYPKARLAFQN
- test: ELISA, coated MSLN-R2;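 further: chimeric antibodies bound to blocked coated plates for 2 h at 37 °C, TMB colour development stopped with HCl, with a negative control antibody for comparison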
Response body: numeric value in OD450, unit text excluded.

Known results for binders:
[[record]]
binder = "S009-F1.25.10 (antibody, human IgG1, kappa, V domains shown, Human-murine chimeric antibody, human IgG1/kappa constant regions) VH: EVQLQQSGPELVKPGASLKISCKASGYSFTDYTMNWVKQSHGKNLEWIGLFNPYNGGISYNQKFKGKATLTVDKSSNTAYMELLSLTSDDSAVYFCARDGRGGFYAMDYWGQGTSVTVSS VL: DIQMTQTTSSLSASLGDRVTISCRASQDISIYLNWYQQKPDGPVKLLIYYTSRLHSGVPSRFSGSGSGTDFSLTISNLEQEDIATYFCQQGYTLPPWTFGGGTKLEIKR"
valuemeasured = 0.04

[[record]]
binder = "S009-F1.35.24 (antibody, human IgG1, kappa, V domains shown, Human-murine chimeric antibody, human IgG1/kappa constant regions) VH: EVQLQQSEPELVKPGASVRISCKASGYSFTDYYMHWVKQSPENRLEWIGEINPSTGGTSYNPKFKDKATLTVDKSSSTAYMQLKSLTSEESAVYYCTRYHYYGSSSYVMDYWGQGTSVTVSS VL: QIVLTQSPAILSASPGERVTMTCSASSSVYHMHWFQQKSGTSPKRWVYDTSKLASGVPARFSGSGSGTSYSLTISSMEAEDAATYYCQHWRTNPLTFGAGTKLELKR"
valuemeasured = 0.05

[[record]]
binder = "S009-F1.57.1 (antibody, human IgG1, kappa, V domains shown, Human-murine chimeric antibody, human IgG1/kappa constant regions) VH: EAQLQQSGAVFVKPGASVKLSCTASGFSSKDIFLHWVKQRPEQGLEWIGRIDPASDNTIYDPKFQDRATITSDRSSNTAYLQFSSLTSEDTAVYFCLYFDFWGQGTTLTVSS VL: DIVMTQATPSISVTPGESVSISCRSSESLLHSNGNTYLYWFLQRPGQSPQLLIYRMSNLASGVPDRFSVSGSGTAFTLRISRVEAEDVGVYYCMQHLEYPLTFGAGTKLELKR"
valuemeasured = 0.04

[[record]]
binder = "S009-F1.56.1 (antibody, human IgG1, kappa, V domains shown, Human-murine chimeric antibody, human IgG1/kappa constant regions) VH: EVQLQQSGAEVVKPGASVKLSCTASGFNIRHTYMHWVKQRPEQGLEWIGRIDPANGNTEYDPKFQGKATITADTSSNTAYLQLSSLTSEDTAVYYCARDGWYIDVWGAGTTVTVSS VL: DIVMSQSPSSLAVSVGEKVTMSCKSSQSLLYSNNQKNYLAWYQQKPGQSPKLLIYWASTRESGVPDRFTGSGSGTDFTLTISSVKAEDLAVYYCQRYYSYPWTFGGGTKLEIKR"
valuemeasured = 0.19


Inquiry: Please report the recorded OD450 at 0.01 nM for S009-F1.59.1 (antibody, human IgG1, kappa, V domains shown, Human-murine chimeric antibody, human IgG1/kappa constant regions) VH: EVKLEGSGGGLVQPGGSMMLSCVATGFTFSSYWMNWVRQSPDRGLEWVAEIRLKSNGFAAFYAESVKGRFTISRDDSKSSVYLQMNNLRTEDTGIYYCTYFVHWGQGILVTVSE VL: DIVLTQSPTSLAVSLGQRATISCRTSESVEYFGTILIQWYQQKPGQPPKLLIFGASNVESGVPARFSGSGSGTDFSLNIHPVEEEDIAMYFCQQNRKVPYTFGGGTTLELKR .
Reply text: 0.06

Inquiry: # lookup: OD450 at 0.01 nM of S009-F1.62.9 (antibody, human IgG1, kappa, V domains shown, Human-murine chimeric antibody, human IgG1/kappa constant regions) VH: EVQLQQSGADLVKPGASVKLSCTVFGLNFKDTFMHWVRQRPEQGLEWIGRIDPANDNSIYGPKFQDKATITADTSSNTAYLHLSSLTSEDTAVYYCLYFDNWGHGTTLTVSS VL: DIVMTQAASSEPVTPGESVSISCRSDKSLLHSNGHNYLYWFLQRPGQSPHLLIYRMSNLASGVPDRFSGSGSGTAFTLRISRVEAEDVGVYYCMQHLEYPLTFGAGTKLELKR
Reply text: 0.04

Inquiry: What measured OD450 at 0.01 nM goes with S009-F1.2.12 (antibody, human IgG1, kappa, V domains shown) VH: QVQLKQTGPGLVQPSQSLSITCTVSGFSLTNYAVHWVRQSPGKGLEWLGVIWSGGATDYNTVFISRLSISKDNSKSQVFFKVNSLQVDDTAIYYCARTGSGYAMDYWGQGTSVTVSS VL: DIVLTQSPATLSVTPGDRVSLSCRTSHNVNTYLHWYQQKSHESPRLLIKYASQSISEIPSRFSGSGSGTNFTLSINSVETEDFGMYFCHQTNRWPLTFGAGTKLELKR ?
Reply text: 0.05
